- ASSAY NOTES: Cytotoxicity against HSG cells
- Format: toxicity, cell-based
- MEASUREMENT CONTEXT: human
MEASURE NAME: CC50 (µM)

>>> value_measured("Cc1oncc1C(=O)Nc1ccc(C(F)(F)F)cc1 [LEFLUNOMIDE]")
20.8

---

- Tested on: Feline infectious peritonitis virus
- ASSAY NOTES: microbe, parasite or virus in culture
- MEASUREMENT CONTEXT: Alphacoronavirus 1
pEC50: −log10 of the molar value.
MEASURE NAME: pEC50

>>> value_measured("CN1CCN(CCOc2cc(OC3CCOCC3)c3c(Nc4c(Cl)ccc5c4OCO5)ncnc3c2)CC1 [SARACATINIB]")
5.15

Data provenance is ChEMBL document CHEMBL5131375.
